The values you see were collected from paper PMC11500415.

Kindly supply the reported Kd values for the records listed here.
tested-system: T1, SCREAM (SCRM), recombinant full-length protein (1-494) (A. thaliana, UniProt Q9LSE2 1-494)
T1 construct: SCRM (ICE1), A. thaliana, residues 1-494; called full-length in the results; The methods describe thrombin removal of GST for all recombinant proteins; For the BLI runs of SCRM with MUTE one partner must have kept GST (anti-GST probes); also called ICE1; source: E. coli BL21, purified (glutathione resin, thrombin digestion, Superdex-200); not shown: GST, N-terminal, cleaved
T1 sequence (looked up): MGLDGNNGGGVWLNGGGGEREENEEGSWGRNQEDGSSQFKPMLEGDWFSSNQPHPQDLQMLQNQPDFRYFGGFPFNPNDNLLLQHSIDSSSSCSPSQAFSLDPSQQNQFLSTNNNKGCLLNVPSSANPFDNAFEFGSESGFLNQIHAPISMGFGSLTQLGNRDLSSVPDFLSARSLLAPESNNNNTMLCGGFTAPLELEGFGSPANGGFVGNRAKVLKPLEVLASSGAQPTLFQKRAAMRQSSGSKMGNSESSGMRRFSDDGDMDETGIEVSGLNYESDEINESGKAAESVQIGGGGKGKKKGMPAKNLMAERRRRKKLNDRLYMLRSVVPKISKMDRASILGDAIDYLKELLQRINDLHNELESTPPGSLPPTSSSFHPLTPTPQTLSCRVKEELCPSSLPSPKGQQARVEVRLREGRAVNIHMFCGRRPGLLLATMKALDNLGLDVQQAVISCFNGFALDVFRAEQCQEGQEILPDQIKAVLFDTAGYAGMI
assay-info: BLI; SCRM with MUTE or MUTE mutants in the presence of Stomidazolone (3) (MUTE pre-incubated); Octet Red96, anti-GST probes loaded with 500 nM GST-tagged protein; 30 °C; 1x PBS, 2% DMSO, 0.02% Tween20; 1:1 model; KD (SS) from steady-state analysis
applied-conditions: both partners purified
API: value field is a number in nM; no unit string.

(Q) Param item = MUTE, recombinant full-length protein (1-202), as used in BLI with SCRM (natural protein, A. thaliana, UniProt Q9M8K6 1-202, looked up, BLI probes were anti-GST and loaded with 500 nM GST-tagged protein; source: E. coli BL21, purified (glutathione resin)) MSHIAVERNRRRQMNEHLKSLRSLTPCFYIKRGDQASIIGGVIEFIKELQQLVQVLESKKRRKTLNRPSFPYDHQTIEPSSLGAATTRVPFSRIENVMTTSTFKEVGACCNSPHANVEAKISGSNVVLRVVSRRIVGQLVKIISVLEKLSFQVLHLNISSMEETVLYFFVVKIGLECHLSLEELTLEVQKSFVSDEVIVSTN ; retrieve measured Kd.
(A) 755

(Q) Try this binder too: MUTE_R133A_R134A, recombinant (natural protein, A. thaliana, UniProt Q9M8K6 1-202, looked up, MUTE, A. thaliana, with R133A and R134A; source: E. coli BL21, purified (glutathione resin)) MSHIAVERNRRRQMNEHLKSLRSLTPCFYIKRGDQASIIGGVIEFIKELQQLVQVLESKKRRKTLNRPSFPYDHQTIEPSSLGAATTRVPFSRIENVMTTSTFKEVGACCNSPHANVEAKISGSNVVLRVVSAAIVGQLVKIISVLEKLSFQVLHLNISSMEETVLYFFVVKIGLECHLSLEELTLEVQKSFVSDEVIVSTN
(A) 62.5

(Q) Try this binder too: MUTE_R133A_R134A_E162A_E163A, recombinant (natural protein, A. thaliana, UniProt Q9M8K6 1-202, looked up, MUTE, A. thaliana, with R133A, R134A, E162A and E163A; source: E. coli BL21, purified (glutathione resin)) MSHIAVERNRRRQMNEHLKSLRSLTPCFYIKRGDQASIIGGVIEFIKELQQLVQVLESKKRRKTLNRPSFPYDHQTIEPSSLGAATTRVPFSRIENVMTTSTFKEVGACCNSPHANVEAKISGSNVVLRVVSAAIVGQLVKIISVLEKLSFQVLHLNISSMAATVLYFFVVKIGLECHLSLEELTLEVQKSFVSDEVIVSTN
(A) 96.5

(Q) Try this binder too: MUTE_E162A_E163A, recombinant (natural protein, A. thaliana, UniProt Q9M8K6 1-202, looked up, MUTE, A. thaliana, with E162A and E163A; source: E. coli BL21, purified (glutathione resin)) MSHIAVERNRRRQMNEHLKSLRSLTPCFYIKRGDQASIIGGVIEFIKELQQLVQVLESKKRRKTLNRPSFPYDHQTIEPSSLGAATTRVPFSRIENVMTTSTFKEVGACCNSPHANVEAKISGSNVVLRVVSRRIVGQLVKIISVLEKLSFQVLHLNISSMAATVLYFFVVKIGLECHLSLEELTLEVQKSFVSDEVIVSTN
(A) 30.5
